Reference source for all entries: ChEMBL document CHEMBL5236659

Molecular target: Serine/threonine-protein kinase mTOR (Homo sapiens, UniProt P42345)
MEASURED_METRIC: IC50 (nM)

{"COMPOUND": "CS(=O)(=O)N1CCN(Cc2ccc(-c3nc(-c4ccc(NC(=O)NC5CN6CCC5CC6)cc4)nc(N4CCOCC4)n3)s2)CC1 (stereo not drawn)", "READING_UNIT": "nM", "IC50": 7960}

P: CS(=O)(=O)N1CCN(Cc2ccc(-c3nc(-c4ccc(NC(=O)Nc5cnccn5)cc4)nc(N4CCOCC4)n3)s2)CC1
Q: Cn1nccc1NC(=O)Nc1ccc(-c2nc(-c3ccc(CN4CCN(S(C)(=O)=O)CC4)s3)nc(N3CCOCC3)n2)cc1
q: Looking only at measured IC50, which entry is lower, P or Q ? Please reply using the label of the selected record.
a: P
